Experiment: Inhibition of central imidazoline I2 receptor at 1 uM

{"compound": "N#Cc1cc(C(O)(c2ccc3c(cnn3-c3ccc(F)cc3)c2)C(F)(F)F)ccc1F (single isomer, unassigned; (-))", "inhibition": "< 50%"}
{"compound": "OC(c1ccnc(Cl)c1)(c1ccc2c(cnn2-c2ccc(F)cc2)c1)C(F)(F)F (single isomer, unassigned; (-))", "inhibition": "< 50%"}
{"compound": "OC(c1ccc2c(cnn2-c2ccc(F)cc2)c1)(c1cccc(Cl)c1Cl)C(F)(F)F (single isomer, unassigned; (+))", "inhibition": "< 50%"}
{"compound": "OC(c1ccc(F)c(Cl)c1)(c1ccc2c(cnn2-c2ccc(F)cc2)c1)C(F)(F)F (single isomer, unassigned; (-))", "inhibition": "< 50%"}
{"compound": "Cc1cc(C(O)(c2ccc3c(cnn3-c3ccc(F)cc3)c2)C(F)(F)F)ccc1F (single isomer, unassigned; (-))", "inhibition": "< 50%"}

----------
Biological target: Glucocorticoid receptor (Homo sapiens)
Experiment: Agonist activity at glucocorticoid receptor in human MDA-kb2 cells transfected with MMTV-LUC assessed as induction of MMTV-LTR/promoter linked LUC gene by luciferase transactivation assay
Assay type: functional, cell-based
Details: read-out: EC50
pEC50: −log10 of the molar value.

{"molecule": "OC(c1ccc2c(cnn2-c2ccc(F)cc2)c1)(c1cccc(Cl)c1Cl)C(F)(F)F (single isomer, unassigned; (+))", "assay target": "Glucocorticoid receptor (Homo sapiens)", "pEC50": 6.46}
{"molecule": "OC(c1ccc(F)c(Cl)c1)(c1ccc2c(cnn2-c2ccc(F)cc2)c1)C(F)(F)F (single isomer, unassigned; (-))", "assay target": "Glucocorticoid receptor (Homo sapiens)", "pEC50": 5.96}

----------
Target: Glucocorticoid receptor (Homo sapiens, UniProt P04150)
Sequence (P04150 whole entry): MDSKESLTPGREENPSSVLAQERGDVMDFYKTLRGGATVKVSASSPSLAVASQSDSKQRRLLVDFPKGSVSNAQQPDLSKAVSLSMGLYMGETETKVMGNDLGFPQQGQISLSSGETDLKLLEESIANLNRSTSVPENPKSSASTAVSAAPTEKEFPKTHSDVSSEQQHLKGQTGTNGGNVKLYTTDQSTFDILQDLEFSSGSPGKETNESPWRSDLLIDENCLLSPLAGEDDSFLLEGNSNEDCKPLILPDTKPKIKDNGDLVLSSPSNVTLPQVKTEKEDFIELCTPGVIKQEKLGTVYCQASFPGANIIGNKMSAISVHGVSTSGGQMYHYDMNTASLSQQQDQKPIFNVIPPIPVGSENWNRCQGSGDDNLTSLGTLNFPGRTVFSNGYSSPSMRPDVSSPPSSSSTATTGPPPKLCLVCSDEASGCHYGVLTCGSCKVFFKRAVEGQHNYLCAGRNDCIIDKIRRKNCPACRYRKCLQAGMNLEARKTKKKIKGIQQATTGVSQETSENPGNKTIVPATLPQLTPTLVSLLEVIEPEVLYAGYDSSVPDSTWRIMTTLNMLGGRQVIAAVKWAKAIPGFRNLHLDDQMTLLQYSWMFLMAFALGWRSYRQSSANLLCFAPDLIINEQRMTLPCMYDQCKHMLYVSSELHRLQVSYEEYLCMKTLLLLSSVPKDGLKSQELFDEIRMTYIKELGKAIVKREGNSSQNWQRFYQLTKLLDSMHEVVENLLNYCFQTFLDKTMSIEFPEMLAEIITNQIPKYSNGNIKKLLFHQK
pIC50: −log10 of the molar value.

{"compound": "OC(c1ccc2c(cnn2-c2ccc(F)cc2)c1)(c1ccccc1F)C(F)(F)F (centres undefined)", "pIC50": 7.27}
{"compound": "OC(c1ccc(F)c(Cl)c1)(c1ccc2c(cnn2-c2ccc(F)cc2)c1)C(F)(F)F (single isomer, unassigned; (-))", "pIC50": 7.31}
{"compound": "Cc1cc(C(O)(c2ccc3c(cnn3-c3ccc(F)cc3)c2)C(F)(F)F)ccc1F (single isomer, unassigned; (-))", "pIC50": 7.23}
{"compound": "OC(c1ccc2c(cnn2-c2ccc(F)cc2)c1)(c1cccc(Cl)c1Cl)C(F)(F)F (stereo in doubt; 23)", "pIC50": 7.06}

----------
Target: D(2) dopamine receptor (Homo sapiens)
Assay: Inhibition of dopamine D2S receptor at 1 uM
# reported inhibition; entries follow
reported property: inhibition

{"compound": "Cc1cc(C(O)(c2ccc3c(cnn3-c3ccc(F)cc3)c2)C(F)(F)F)ccc1F (single isomer, unassigned; (-))", "endpoint result": "< 50%"}
{"compound": "OC(c1ccc2c(cnn2-c2ccc(F)cc2)c1)(c1cccc(Cl)c1Cl)C(F)(F)F (single isomer, unassigned; (+))", "endpoint result": "< 50%"}
{"compound": "N#Cc1cc(C(O)(c2ccc3c(cnn3-c3ccc(F)cc3)c2)C(F)(F)F)ccc1F (single isomer, unassigned; (-))", "endpoint result": "< 50%"}
{"compound": "OC(c1ccc(F)c(Cl)c1)(c1ccc2c(cnn2-c2ccc(F)cc2)c1)C(F)(F)F (single isomer, unassigned; (-))", "endpoint result": "< 50%"}
{"compound": "OC(c1ccnc(Cl)c1)(c1ccc2c(cnn2-c2ccc(F)cc2)c1)C(F)(F)F (single isomer, unassigned; (-))", "endpoint result": "< 50%"}

----------
# reported pIC50; entries follow
Molecular target: Glucocorticoid receptor (Homo sapiens)
Sequence (P04150 whole entry): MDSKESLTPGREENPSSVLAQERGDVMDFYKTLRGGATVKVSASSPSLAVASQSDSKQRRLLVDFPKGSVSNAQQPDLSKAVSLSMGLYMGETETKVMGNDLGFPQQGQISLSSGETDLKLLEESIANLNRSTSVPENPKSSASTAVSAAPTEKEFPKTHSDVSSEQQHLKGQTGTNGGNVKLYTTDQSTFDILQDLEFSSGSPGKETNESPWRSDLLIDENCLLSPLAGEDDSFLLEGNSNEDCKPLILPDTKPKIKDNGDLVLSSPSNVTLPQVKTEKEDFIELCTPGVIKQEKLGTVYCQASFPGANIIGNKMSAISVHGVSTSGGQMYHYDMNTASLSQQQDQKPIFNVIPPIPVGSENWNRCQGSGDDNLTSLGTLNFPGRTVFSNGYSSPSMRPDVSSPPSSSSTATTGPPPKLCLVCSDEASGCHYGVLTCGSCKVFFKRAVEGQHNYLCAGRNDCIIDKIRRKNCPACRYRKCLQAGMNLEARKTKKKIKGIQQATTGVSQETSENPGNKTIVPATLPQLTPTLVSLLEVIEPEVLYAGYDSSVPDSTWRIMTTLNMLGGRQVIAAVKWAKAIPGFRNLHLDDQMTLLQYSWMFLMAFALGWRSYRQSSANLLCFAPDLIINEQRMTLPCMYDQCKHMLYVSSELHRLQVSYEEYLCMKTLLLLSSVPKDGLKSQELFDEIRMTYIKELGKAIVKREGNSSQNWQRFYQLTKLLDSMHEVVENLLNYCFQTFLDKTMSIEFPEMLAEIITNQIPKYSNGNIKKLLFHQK
pIC50: −log10 of the molar value.
reported property: pIC50

{"molecule": "OC(c1ccc2c(cnn2-c2ccc(F)cc2)c1)(c1cccc(Cl)c1Cl)C(F)(F)F (single isomer, unassigned; (+))", "assay target": "Glucocorticoid receptor (Homo sapiens)", "endpoint result": 7.47}
{"molecule": "N#Cc1cc(C(O)(c2ccc3c(cnn3-c3ccc(F)cc3)c2)C(F)(F)F)ccc1F (centres undefined)", "assay target": "Glucocorticoid receptor (Homo sapiens)", "endpoint result": 7.52}
{"molecule": "OC(c1ccnc(Cl)c1)(c1ccc2c(cnn2-c2ccc(F)cc2)c1)C(F)(F)F (single isomer, unassigned; (-))", "assay target": "Glucocorticoid receptor (Homo sapiens)", "endpoint result": 7.85}
{"molecule": "OC(c1ccc(F)c(Cl)c1)(c1ccc2c(cnn2-c2ccc(F)cc2)c1)C(F)(F)F (stereo in doubt; 18)", "assay target": "Glucocorticoid receptor (Homo sapiens)", "endpoint result": 6.93}

----------
Target: Sigma non-opioid intracellular receptor 1 (Homo sapiens) (UniProt Q99720)
Sequence (Q99720 whole entry): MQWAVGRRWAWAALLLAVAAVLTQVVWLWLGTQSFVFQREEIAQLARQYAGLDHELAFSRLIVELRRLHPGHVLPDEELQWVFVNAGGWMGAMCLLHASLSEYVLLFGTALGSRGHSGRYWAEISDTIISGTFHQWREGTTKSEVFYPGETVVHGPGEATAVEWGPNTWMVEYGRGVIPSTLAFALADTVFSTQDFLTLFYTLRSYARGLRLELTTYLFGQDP
Experiment: Inhibition of sigma 1 receptor at 1 uM
reported property: inhibition

{"compound": "OC(c1ccc2c(cnn2-c2ccc(F)cc2)c1)(c1cccc(Cl)c1Cl)C(F)(F)F (single isomer, unassigned; (+))", "endpoint result": "< 50%"}
{"compound": "Cc1cc(C(O)(c2ccc3c(cnn3-c3ccc(F)cc3)c2)C(F)(F)F)ccc1F (single isomer, unassigned; (-))", "endpoint result": "< 50%"}
{"compound": "OC(c1ccnc(Cl)c1)(c1ccc2c(cnn2-c2ccc(F)cc2)c1)C(F)(F)F (single isomer, unassigned; (-))", "endpoint result": "< 50%"}
{"compound": "OC(c1ccc(F)c(Cl)c1)(c1ccc2c(cnn2-c2ccc(F)cc2)c1)C(F)(F)F (single isomer, unassigned; (-))", "endpoint result": "< 50%"}
{"compound": "N#Cc1cc(C(O)(c2ccc3c(cnn3-c3ccc(F)cc3)c2)C(F)(F)F)ccc1F (single isomer, unassigned; (-))", "endpoint result": "< 50%"}

----------
Assay: Inhibition of ATP-sensitive potassium channel at 1 uM
reported property: inhibition

{"molecule": "OC(c1ccc(F)c(Cl)c1)(c1ccc2c(cnn2-c2ccc(F)cc2)c1)C(F)(F)F (single isomer, unassigned; (-))", "reported property": "inhibition", "endpoint result": "< 50%"}
{"molecule": "N#Cc1cc(C(O)(c2ccc3c(cnn3-c3ccc(F)cc3)c2)C(F)(F)F)ccc1F (single isomer, unassigned; (-))", "reported property": "inhibition", "endpoint result": "< 50%"}
{"molecule": "OC(c1ccnc(Cl)c1)(c1ccc2c(cnn2-c2ccc(F)cc2)c1)C(F)(F)F (single isomer, unassigned; (-))", "reported property": "inhibition", "endpoint result": "< 50%"}
{"molecule": "Cc1cc(C(O)(c2ccc3c(cnn3-c3ccc(F)cc3)c2)C(F)(F)F)ccc1F (single isomer, unassigned; (-))", "reported property": "inhibition", "endpoint result": "< 50%"}
{"molecule": "OC(c1ccc2c(cnn2-c2ccc(F)cc2)c1)(c1cccc(Cl)c1Cl)C(F)(F)F (single isomer, unassigned; (+))", "reported property": "inhibition", "endpoint result": "< 50%"}
